# Procedure Text: Cytotoxicity against human HEL cells assessed as change in cell morphology by microscopic analysis
# Format: cell-based
Outcome Measure: MCC (µM)

{"Compound": "CCCCCCc1ccc(C#CC#Cc2cn([C@H]3C[C@H](O)[C@@H](CO)O3)c(=O)[nH]c2=O)cc1", "Readout Qualifier": "=", "Assay Value": 100}
{"Compound": "CCCc1ccc(C#CC#Cc2cn([C@H]3C[C@H](O)[C@@H](CO)O3)c(=O)[nH]c2=O)cc1", "Readout Qualifier": "=", "Assay Value": 100}
{"Compound": "Nc1nc2c(ncn2COCCO)c(=O)[nH]1 [ACYCLOVIR]", "Readout Qualifier": ">", "Assay Value": 300}
{"Compound": "Nc1ccn(C[C@@H](CO)OCP(=O)(O)O)c(=O)n1 [CIDOFOVIR]", "Readout Qualifier": ">", "Assay Value": 350}
{"Compound": "Nc1ccc(C#CC#Cc2cn([C@H]3C[C@H](O)[C@@H](CO)O3)c(=O)[nH]c2=O)cc1", "Readout Qualifier": ">", "Assay Value": 100}
{"Compound": "COc1cc(C#CC#Cc2cn([C@H]3C[C@H](O)[C@@H](CO)O3)c(=O)[nH]c2=O)cc(OC)c1", "Readout Qualifier": ">", "Assay Value": 100}
{"Compound": "O=c1[nH]c(=O)n([C@H]2C[C@H](O)[C@@H](CO)O2)cc1C#CC#Cc1ccc(OC(F)(F)F)cc1", "Readout Qualifier": "=", "Assay Value": 100}
{"Compound": "O=c1[nH]c(=O)n([C@H]2C[C@H](O)[C@@H](CO)O2)cc1C#CC#Cc1ccccc1", "Readout Qualifier": "=", "Assay Value": 100}
{"Compound": "O=c1[nH]c(=O)n([C@H]2C[C@H](O)[C@@H](CO)O2)cc1C#CC#Cc1ccccn1", "Readout Qualifier": ">", "Assay Value": 20}

---

# Procedure Text: Cytotoxicity against human HEL cells assessed as change in cell morphology by microscopic analysis
# Type: cell-based
Outcome Measure: MCC

{"Compound": "Cc1cc(C#CC#Cc2cn([C@H]3C[C@H](O)[C@@H](CO)O3)c(=O)[nH]c2=O)ccc1F", "Assay Value": "100 µM"}
{"Compound": "Nc1cccc(C#CC#Cc2cn([C@H]3C[C@H](O)[C@@H](CO)O3)c(=O)[nH]c2=O)c1", "Assay Value": "> 100 µM"}
{"Compound": "O=c1[nH]c(=O)n([C@H]2C[C@H](O)[C@@H](CO)O2)cc1C#CC#CC1CC1", "Assay Value": "> 100 µM"}
{"Compound": "O=c1[nH]c(=O)n([C@H]2C[C@H](O)[C@@H](CO)O2)cc1C#CC#Cc1ccc([N+](=O)[O-])cc1", "Assay Value": "100 µM"}
{"Compound": "CC(O)CC#CC#Cc1cn([C@H]2C[C@H](O)[C@@H](CO)O2)c(=O)[nH]c1=O (some centres undefined)", "Assay Value": "> 100 µM"}
{"Compound": "Nc1nc2c(ncn2COC(CO)CO)c(=O)[nH]1", "Assay Value": "> 350 µM"}
{"Compound": "O=c1[nH]c(=O)n([C@H]2C[C@H](O)[C@@H](CO)O2)cc1C#CC#CCC1CCCC1", "Assay Value": "> 100 µM"}
{"Compound": "O=c1[nH]c(=O)n([C@H]2C[C@H](O)[C@@H](CO)O2)cc1/C=C/Br", "Assay Value": "> 150 µM"}
{"Compound": "O=c1[nH]c(=O)n([C@H]2C[C@H](O)[C@@H](CO)O2)cc1C#CC#CCO", "Assay Value": "> 100 µM"}
